Data credit: paper PMC10397247

Biological target: T1, 4H477-bN
T1 chain: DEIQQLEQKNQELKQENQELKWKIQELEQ
Test: two-hybrid library CCNG1;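 further: natural log of median RNA to DNA barcode read ratio; higher means stronger binding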
The entries below come with measured interaction score values attached.
Property measured: interaction score

binder="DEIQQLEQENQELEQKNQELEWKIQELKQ [4H182-bN]" observed_result=-1.61
binder="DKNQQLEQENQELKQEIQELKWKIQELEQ [4H3277-bN]" observed_result=-1.11
binder="DEIQQLEQEIQELEQKIQELEWKNQELKQ [4H40-bN]" observed_result=0.0764
binder="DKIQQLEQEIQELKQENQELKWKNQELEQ [4H2143-bN]" observed_result=-0.266
